Could you please report measured pIC50 for the items listed next?
test system: HeLa; assay: Antiproliferative activity against human HeLa cells assessed as inhibition of cell growth incubated for 48 hrs by MTT assay; assay type: functional, cell-based
Give bare numbers, as −log10 of the molar value.

1. CC(C)(C)c1ccc(S(=O)(=O)N2C[C@@H]3CCCN4CCC[C@@H]([C@H]34)[C@H]2CCCc2nc3cc([N+](=O)[O-])ccc3n2S(=O)(=O)c2ccc(C(C)(C)C)cc2)cc1
4.18
2. O=S(=O)(c1ccc(Cl)cc1)N1C[C@@H]2CCCN3CCC[C@@H]([C@H]23)[C@H]1CCCc1nc2ccc(Cl)cc2n1S(=O)(=O)c1ccc(Cl)cc1
4.27

Now for a further molecule.
Just so you know, measured pIC50 for Cc1ccc(S(=O)(=O)N2C[C@@H]3CCCN4CCC[C@@H]([C@H]34)[C@H]2CCCc2nc3ccc([N+](=O)[O-])cc3n2S(=O)(=O)c2ccc(C)cc2)cc1 came out at 4.14

---

test system: HeLa; assay: Antiproliferative activity against human HeLa cells assessed as inhibition of cell growth incubated for 48 hrs by MTT assay; format: functional, cell-based
Exercise: state measured pIC50 for each of the molecules provided.
Give bare numbers, as −log10 of the molar value.

1) Cn1c(CCCNC(=O)CCC[C@@H]2[C@H]3CCCN4CCC[C@@H](CN2C(=O)OCC2c5ccccc5-c5ccccc52)[C@@H]34)nc2ccc([N+](=O)[O-])cc21
4.81

Provide reported pIC50 for each item, in the same order as listed.
1. O=S(=O)(c1cccc2ccccc12)N1C[C@@H]2CCCN3CCC[C@@H]([C@H]23)[C@H]1CCCc1nc2ccc(F)cc2n1S(=O)(=O)c1cccc2ccccc12
2. O=C(OCC1c2ccccc2-c2ccccc21)N1C[C@@H]2CCCN3CCC[C@@H]([C@H]23)[C@H]1CCCc1nc2ccc(Br)cc2[nH]1

1: 4.40; 2: 4.82

The following molecules each have a reported value; give each one's pIC50.
1. O=S(=O)(c1cccc2ccccc12)N1C[C@@H]2CCCN3CCC[C@@H]([C@H]23)[C@H]1CCCc1nc2cc(F)ccc2n1S(=O)(=O)c1cccc2ccccc12
2. O=C(CCC[C@@H]1[C@H]2CCCN3CCC[C@@H](CN1C(=O)OCC1c4ccccc4-c4ccccc41)[C@@H]23)NCCCc1nc2ccc(F)cc2[nH]1

[4.96, 4.80]

Go through the items and report each one's pIC50.
1. O=C(OCC1c2ccccc2-c2ccccc21)N1C[C@@H]2CCCN3CCC[C@@H]([C@H]23)[C@H]1CCCc1nc2cc(Br)c(Br)cc2[nH]1
2. CCc1c2c(nc3ccc(OC(=O)N4CCC(N5CCCCC5)CC4)cc13)-c1cc3c(c(=O)n1C2)COC(=O)[C@]3(O)CC

1. 5.14
2. 4.88

# batch size: 4; output pIC50 per entry
1. CC(C)(C)c1ccc(S(=O)(=O)N2C[C@@H]3CCCN4CCC[C@@H]([C@H]34)[C@H]2CCCc2nc3ccc([N+](=O)[O-])cc3n2S(=O)(=O)c2ccc(C(C)(C)C)cc2)cc1
2. Cc1ccc(S(=O)(=O)N2C[C@@H]3CCCN4CCC[C@@H]([C@H]34)[C@H]2CCCc2nc3cc(Br)ccc3n2S(=O)(=O)c2ccc(C)cc2)cc1
3. O=C(CCC[C@@H]1[C@H]2CCCN3CCC[C@@H](CN1C(=O)OCC1c4ccccc4-c4ccccc41)[C@@H]23)NCCCc1nc2ccccc2[nH]1
4. C[C@]1(c2nc3c(C(N)=O)cccc3[nH]2)CCCN1

1: 4.15; 2: 5.13; 3: 4.66; 4: 4.74
